System: IL-10
Experiment: IL-10 release in supernatants of LPS-treated primary microglial cells (ELISA)
Format: cell-based, Wistar rats
Settings: C2: 2.5 μg/mL, 72 h, LPS-treated
Method: Primary microglial cell cultures were prepared from brains of newborn Wistar rats. […] After 72 h of incubation, cells were counted, and 2.5 mL of the supernatants were collected from each well and frozen at −40 °C for cytokine analyses. […] The supernatants obtained from cell cultures were analyzed for TNF-α, IL-1β, IL-4, IL-6, IL-8, IL-10 and IL-18 using commercially available ELISA kits following the manufacturers’ instructions. […]
Mark yes (1) only for IL-10 release values smaller than 8 pg/mL; exact matches and larger values are no (0).

C=C(C)C1CCC23OC2C(CC2(C)CC(=O)C(CC(=O)C1)O2)OC3=O (centres unmarked) [Compound 3, scabrolide D]
yes (1)

Consider the record given below.
Given C=C(C)[C@@H]1C/C=C2\C(=O)O[C@@H](C[C@]3(C)CC(=O)[C@@H](CC(=O)C1)O3)[C@@H]2O [Compound 2, sinuleptolide] , is recorded IL-10 release strictly lower than 8 pg/mL?
no (0)
